Observed IC50, system sigma receptors (Rattus norvegicus).
Give the value, in units of nM, as a plain number.

C(=C\c1ccccc1)/CC1CCCN1CC1CC1 (racemic) [Example 1.1] ... 34.2

Attention now turns to another entry.
Qu. Looking for the measured IC50 of C(=C\c1ccccc1)/CC1CCCN1CC1CCC1 (centres unmarked) [Example 1.4] , can you help?
Ans. 4.52

###

Catalogue of IC50, haloperidol / IC50, example readings, one per entry.
Tgt: sigma receptors (Rattus norvegicus)
Construct: a preparation of rat brain membrane; from tissue; host or cells: rat brain membranes
Sequence (Q9R0C9 whole entry): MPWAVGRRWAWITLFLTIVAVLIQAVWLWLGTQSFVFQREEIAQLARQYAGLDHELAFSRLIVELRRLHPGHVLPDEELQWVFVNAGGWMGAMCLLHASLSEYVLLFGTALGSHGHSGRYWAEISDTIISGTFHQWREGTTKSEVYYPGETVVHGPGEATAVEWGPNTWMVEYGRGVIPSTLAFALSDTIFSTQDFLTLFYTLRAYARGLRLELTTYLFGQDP
Experiment description: In vitro binding to sigma receptors with (+)[^3 H]SKF10.047
Measurement parameters: ratio to haloperidol, second series, rat brain membranes, [^3 H]SKF10.047
Reply with just the number.

Solved cases (4 shown):
C(=C/c1ccccc1)/CC1CCCN1CC1CC1 (centres unmarked) ... 4.3
FC(F)(F)c1ccc(/C=C/CC2CCCCN2CC2CC2)cc1 (centres unmarked) ... 0.8
C(=C\c1ccccc1)/CC1CCCCN1CC1CC1 (single isomer, unassigned; (-)) ... 1.4
C(=C\c1ccccc1)/CC1CCCN1CCc1ccccc1 (centres unmarked) [Example 1.6, (E)-2-cinnamyl-1-phenethylpyrrolidine] ... 1.3

Attention now turns to another entry.
Qu. Return IC50, haloperidol / IC50, example measured with sigma receptors (Rattus norvegicus) given this molecule: Fc1ccc(/C=C\CC2CCCCN2CC2CC2)cc1 (centres unmarked)
Ans. 1.6
